The reported numbers originate from ChEMBL document CHEMBL5665443.

system.tested: Uracil-DNA glycosylase (Homo sapiens);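 note: UNG excision on a quenched double-stranded DNA oligo probe, with APE1 added for strand incision and turnover, read as fluorescence at 594 nm as strands separate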
conditions.used: Compound Concentration 1.0 uM, Hit No
Description: Inhibition of UNG by quantifying inhibition of UNG-mediated cleavage and dissociation of quenched duplex DNA oligonucleotides, measured as fluorescence at 594 nm. To generate a functional strand incision and increase turn-over this assay is coupled to APE1.
reported.property: inhibition (%)
Just the number please, in %, no unit attached.

[
  {
    "molecular.string": "CCCCN(CCCC)C(=O)CN1C[C@H](c2cc(OC)c3c(c2)OCO3)[C@@H](C(=O)O)[C@@H]1CC(C)(C)CCC",
    "system.tested": "Uracil-DNA glycosylase (Homo sapiens)",
    "reported.property": "inhibition",
    "uom": "%",
    "assay.result": -0.907
  },
  {
    "molecular.string": "Cc1n[nH]c2ncc(C(=O)N3CCC[C@H]3c3ccc(Cl)cc3)cc12",
    "system.tested": "Uracil-DNA glycosylase (Homo sapiens)",
    "reported.property": "inhibition",
    "uom": "%",
    "assay.result": -1.69
  },
  {
    "molecular.string": "CC(C)CC(=O)N1CCc2nc(-c3ccc(Br)cc3)nc(N(C)Cc3ccccc3)c2C1",
    "system.tested": "Uracil-DNA glycosylase (Homo sapiens)",
    "reported.property": "inhibition",
    "uom": "%",
    "assay.result": 0.688
  }
]

Inquiry: Specify reported inhibition for the compound shown: `N#Cc1ccc(Nc2ccc3[nH]c(=O)[nH]c3c2)c(Cl)c1`
Reply text: 1.6

Inquiry: Specify reported inhibition for the compound shown: `CN(C)C/C=C/C(=O)Nc1cc2c(Nc3ccc(F)c(Cl)c3)ncnc2cc1O[C@H]1CCOC1`
Reply text: -1.9

Inquiry: Specify reported inhibition for the compound shown: `CN1CCN(C(=O)C(C)(C)c2ccc(C(=O)Nc3cn4cc(-c5ccncc5)ccc4n3)cc2)CC1`
Reply text: 0.265

Inquiry: Specify reported inhibition for the compound shown: `Cc1c(Oc2ccc(F)cc2)c(OC(C)C)nn1-c1ccc(C2CC2)cn1`
Reply text: 0.0471

Inquiry: Specify reported inhibition for the compound shown: `CN(C)C(=O)/C(C#N)=C/c1ccc(-c2nc3cnc4[nH]ccc4c3n2C2CCCCC2)o1`
Reply text: 8.33

Inquiry: Specify reported inhibition for the compound shown: `COc1cccc(-c2nccc3c2CN(c2ccccc2)C3=O)c1`
Reply text: 3.9

* * *

system.tested: N-glycosylase/DNA lyase (Homo sapiens);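 note: OGG1 cleavage of a quenched duplex DNA oligonucleotide, coupled to APE1 for strand incision, read as fluorescence at 594 nm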
conditions.used: Compound Concentration 10.0 uM, Hit No
Description: Inhibition of OGG1 by quantifying inhibition of OGG1-mediated cleavage and dissociation of quenched duplex DNA oligonucleotides, measured as fluorescence at 594 nm. To generate a functional strand incision and increase turn-over this assay is coupled to APE1.
Catalogue of inhibition readings, one per entry.
Just the number please, in %, no unit attached.

[
  {
    "compound": "CC(C)(O)[C@H](F)CN1Cc2cc(NC(=O)c3cnn4cccnc34)c(N3CCOCC3)cc2C1=O",
    "inhibition [%]": 0.815
  },
  {
    "compound": "CCCC(=O)C1CCN(c2ncnc3c2CN(C(=O)c2ccc(-c4ccccc4)cc2)CC3)CC1",
    "inhibition [%]": -4.93
  },
  {
    "compound": "NCCc1c[nH]c2ccc(O)cc12",
    "inhibition [%]": -2.75
  },
  {
    "compound": "C[C@]1(C(=O)N(CCCC(=O)O)Cc2cccc(Cl)c2)CCN1C(=O)c1csc2ccccc12",
    "inhibition [%]": 3.32
  }
]

Inquiry: Specify reported inhibition for the compound shown: `CNC[C@H](O)c1ccc(O)c(O)c1`
Reply text: 30.3

Inquiry: Specify reported inhibition for the compound shown: `C[C@H](NC(=O)Cc1ccc(-c2ccc3cccnc3n2)cc1)c1ccc(-c2ccc(F)c(C(F)(F)F)c2)cc1`
Reply text: 5.81

* * *

Catalogue of inhibition readings, one per entry.
system.tested: Endonuclease 8-like 1 (Homo sapiens) (UniProt Q96FI4);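 note: fluorescence at 594 nm from quenched duplex DNA oligonucleotides released by NEIL1 cleavage and strand separation, reported as reduction of this enzyme activity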
Sequence (Q96FI4 whole entry): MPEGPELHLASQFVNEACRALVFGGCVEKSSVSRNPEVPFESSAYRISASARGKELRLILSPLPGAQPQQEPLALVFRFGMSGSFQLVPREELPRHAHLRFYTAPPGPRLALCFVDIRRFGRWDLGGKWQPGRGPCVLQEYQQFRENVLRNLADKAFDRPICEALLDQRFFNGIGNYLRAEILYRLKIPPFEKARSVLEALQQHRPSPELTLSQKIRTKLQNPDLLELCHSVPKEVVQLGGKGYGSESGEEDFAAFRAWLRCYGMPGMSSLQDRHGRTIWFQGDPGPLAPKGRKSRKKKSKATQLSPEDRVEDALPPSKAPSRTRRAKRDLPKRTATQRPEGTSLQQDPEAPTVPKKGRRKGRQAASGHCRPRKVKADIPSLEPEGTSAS
conditions.used: Compound Concentration 10.0 uM, Hit No
Description: Inhibition of NEIL1 by quantifying inhibition of NEIL1-mediated cleavage and dissociation of quenched duplex DNA oligonucleotides, measured as fluorescence at 594 nm.
Reply with a number, then the unit it belongs to.

Examples from the recorded data:
[
  {
    "compound": "CN1[C@@H](CC(=O)c2ccccc2)CCC[C@H]1C[C@H](O)c1ccccc1",
    "inhibition": "1.64%"
  },
  {
    "compound": "CCCN(CCC)[C@@H]1CCc2ccc3[nH]c(C#N)cc3c2C1",
    "inhibition": "-4.73%"
  },
  {
    "compound": "Cc1c(P(=S)(c2ccccc2)c2ccccc2)n2ccccc2[n+]1C/C=C/c1ccccc1",
    "inhibition": "11.1%"
  },
  {
    "compound": "CC(=O)Nc1ncc(CN2CCC[C@H](Cc3cc(C)nc(C)c3)C2)s1",
    "inhibition": "1.53%"
  },
  {
    "compound": "O=C(Nc1ccc(Cl)nc1)c1ccc(Cl)cc1",
    "inhibition": "6.68%"
  }
]

Let's switch to this compound now.
Inquiry: Specify reported inhibition for the compound shown: `COc1ccc(/C=C/CCCCOc2ccc(C(=O)c3cccc(C(=O)O)c3)cc2CCC(=O)O)cc1`
Reply text: -0.204%

* * *

system.tested: DNA-3-methyladenine glycosylase (Homo sapiens)
conditions.used: Compound Concentration 10.0 uM, Hit No
Description: Inhibition of MPG by quantifying inhibition of MPG-mediated cleavage and dissociation of quenched duplex DNA oligonucleotides, measured as fluorescence at 594 nm. To generate a functional strand incision and increase turn-over this assay is coupled to APE1.
reported.property: inhibition (%)
Just the number please, in %, no unit attached.

[
  {
    "compound": "O=C(c1cc(C2CC2)on1)N(C1CCCCC1)C1CCCCC1",
    "uom": "%",
    "assay.result": 42.7
  },
  {
    "compound": "CCCc1nc2c(C)cc(-c3nc4ccccc4n3C)cc2n1Cc1ccc(-c2ccccc2C(=O)O)cc1",
    "uom": "%",
    "assay.result": -0.129
  },
  {
    "compound": "CCCCC#Cc1nc(NC)c2ncn([C@@H]3O[C@H](CO)[C@@H](O)[C@H]3O)c2n1",
    "uom": "%",
    "assay.result": -9.85
  },
  {
    "compound": "CCOC(=O)c1ncn2c1[C@@H]1CCCN1C(=O)c1cc(OC)ccc1-2",
    "uom": "%",
    "assay.result": -5.68
  },
  {
    "compound": "CCCN(CCC)[C@@H]1CCc2ccc3[nH]c(C#N)cc3c2C1",
    "uom": "%",
    "assay.result": 27.5
  }
]

Inquiry: Specify reported inhibition for the compound shown: COC(=O)N1CCN(C(=O)Cc2ccc(Cl)c(Cl)c2)C(CN2CCCC2)C1 (configuration not stated)
Reply text: -2.31

Inquiry: Specify reported inhibition for the compound shown: `CC(C)N(CCCCOCC(=O)NS(C)(=O)=O)c1cnc(-c2ccccc2)c(-c2ccccc2)n1`
Reply text: 55.8

* * *

system.tested: Adenine DNA glycosylase (Homo sapiens);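 note: human MUTYH activity read as 594 nm fluorescence from cleavage and release of a quenched DNA duplex, coupled with APE1 for strand incision, lower signal meaning inhibition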
conditions.used: Compound Concentration 10.0 uM, Hit No
Description: Inhibition of MUTYH by quantifying inhibition of MUTYH-mediated cleavage and dissociation of quenched duplex DNA oligonucleotides, measured as fluorescence at 594 nm. To generate a functional strand incision and increase turn-over this assay is coupled to APE1.
Catalogue of inhibition readings, one per entry.
Reply with a number, then the unit it belongs to.

Examples from the recorded data:
[
  {
    "molecular.string": "C[C@H](C[C@H](N)C(=O)O)C(=O)O",
    "reported.property": "inhibition",
    "assay.result": "17%"
  },
  {
    "molecular.string": "Cc1cc(C(=O)N2Cc3cnn(C)c3Nc3ccccc32)ccc1CNC(=O)N1CCC[C@H]1C(=S)N1CCCN(C)CC1",
    "reported.property": "inhibition",
    "assay.result": "-9.83%"
  }
]

Inquiry: Specify reported inhibition for the molecule shown: `CCCCCCCN(CCc1ccc(SC(C)(C)C(=O)O)cc1)C(=O)Nc1ccc(F)cc1F`
Reply text: 26%

* * *

Catalogue of inhibition readings, one per entry.
system.tested: G/T mismatch-specific thymine DNA glycosylase (Homo sapiens) (UniProt Q13569);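 note: human TDG cleavage of quenched duplex DNA oligonucleotides coupled to APE1, strand release read as fluorescence at 594 nm, inhibition of TDG activity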
Sequence (Q13569 whole entry): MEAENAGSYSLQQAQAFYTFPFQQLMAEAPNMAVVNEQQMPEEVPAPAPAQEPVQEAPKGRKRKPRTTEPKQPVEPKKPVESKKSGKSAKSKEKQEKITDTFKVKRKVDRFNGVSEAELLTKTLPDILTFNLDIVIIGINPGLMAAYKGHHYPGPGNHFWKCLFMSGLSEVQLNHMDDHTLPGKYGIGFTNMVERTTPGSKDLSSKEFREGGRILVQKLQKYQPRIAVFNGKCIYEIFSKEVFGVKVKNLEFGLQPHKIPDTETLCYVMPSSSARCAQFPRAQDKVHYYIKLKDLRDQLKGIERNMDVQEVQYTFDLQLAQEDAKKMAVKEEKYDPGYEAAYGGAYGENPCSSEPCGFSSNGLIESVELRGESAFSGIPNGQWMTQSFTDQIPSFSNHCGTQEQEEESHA
conditions.used: Compound Concentration 1.0 uM, Hit No
Description: Inhibition of TDG by quantifying inhibition of TDG-mediated cleavage and dissociation of quenched duplex DNA oligonucleotides, measured as fluorescence at 594 nm. To generate a functional strand incision and increase turn-over this assay is coupled to APE1.
Just the number please, in %, no unit attached.

[
  {
    "compound": "CCCOc1ccc([C@@H]2[C@@H](C(=O)O)[C@H](c3ccc4c(c3)OCO4)CN2CC(=O)Nc2c(CC)cccc2CC)cc1",
    "inhibition (%)": 57.1
  }
]

Inquiry: Specify reported inhibition for the compound shown: `O=C(NCc1ncc(C(F)(F)F)cc1Cl)c1ccc2c(c1)C1(CCS(=O)(=O)CC1)[C@H](C1CC1)N2S(=O)(=O)c1ccc(F)cc1`
Reply text: 38.8

Inquiry: Specify reported inhibition for the compound shown: `CC(C)CC(=O)N1CCc2nc(-c3ccc(Br)cc3)nc(N(C)Cc3ccccc3)c2C1`
Reply text: 35.8

Inquiry: Specify reported inhibition for the compound shown: `CC1=C(C#N)C(c2ccc3c(c2)c(NC(=O)c2ccccc2C)nn3C)C(C#N)=C(C)N1`
Reply text: 29.4

Inquiry: Specify reported inhibition for the compound shown: `NC1(c2ccc(-c3nc4c(O)ccnn4c3-c3ccccc3)cc2)CCC1`
Reply text: 59.1

Inquiry: Specify reported inhibition for the compound shown: `O=C(NOC[C@H](O)CO)c1ccc(F)c(F)c1Nc1ccc(I)cc1F`
Reply text: 39.9

Inquiry: Specify reported inhibition for the compound shown: `CN(C)C(=O)/C(C#N)=C/c1ccc(-c2nc3cnc4c(ccn4C)c3n2C2CCCCC2)o1`
Reply text: 49.4

Inquiry: Specify reported inhibition for the compound shown: `CCC(=O)N1CCN(c2ccc(-n3c(=O)ccc4cnc5ccc(-c6cnc7ccccc7c6)cc5c43)cc2C(F)(F)F)CC1`
Reply text: 59

Inquiry: Specify reported inhibition for the compound shown: `CNCc1ccccc1-c1csc([C@H](C)Nc2nc(C)nc3cc(OC)c(OC)cc23)c1`
Reply text: 97.8
